Value source: patent US20260078119A1

Each entry below carries its reported FAK HiBiT Ymin.
# TARGET OR TEST SYSTEM: FAK (Homo sapiens)
# Construct: homozygous knock-in of a HiBiT tag (Promega Corporation, Madison, WI) to the C-terminus of the FAK gene in its natural genomic locus; endogenous in cells; host or cells: JHH-4-FAK-HiBiT clone d01 (CRISPR-Cas9 knock-in at the endogenous locus)
# Sequence (Q05397 whole entry): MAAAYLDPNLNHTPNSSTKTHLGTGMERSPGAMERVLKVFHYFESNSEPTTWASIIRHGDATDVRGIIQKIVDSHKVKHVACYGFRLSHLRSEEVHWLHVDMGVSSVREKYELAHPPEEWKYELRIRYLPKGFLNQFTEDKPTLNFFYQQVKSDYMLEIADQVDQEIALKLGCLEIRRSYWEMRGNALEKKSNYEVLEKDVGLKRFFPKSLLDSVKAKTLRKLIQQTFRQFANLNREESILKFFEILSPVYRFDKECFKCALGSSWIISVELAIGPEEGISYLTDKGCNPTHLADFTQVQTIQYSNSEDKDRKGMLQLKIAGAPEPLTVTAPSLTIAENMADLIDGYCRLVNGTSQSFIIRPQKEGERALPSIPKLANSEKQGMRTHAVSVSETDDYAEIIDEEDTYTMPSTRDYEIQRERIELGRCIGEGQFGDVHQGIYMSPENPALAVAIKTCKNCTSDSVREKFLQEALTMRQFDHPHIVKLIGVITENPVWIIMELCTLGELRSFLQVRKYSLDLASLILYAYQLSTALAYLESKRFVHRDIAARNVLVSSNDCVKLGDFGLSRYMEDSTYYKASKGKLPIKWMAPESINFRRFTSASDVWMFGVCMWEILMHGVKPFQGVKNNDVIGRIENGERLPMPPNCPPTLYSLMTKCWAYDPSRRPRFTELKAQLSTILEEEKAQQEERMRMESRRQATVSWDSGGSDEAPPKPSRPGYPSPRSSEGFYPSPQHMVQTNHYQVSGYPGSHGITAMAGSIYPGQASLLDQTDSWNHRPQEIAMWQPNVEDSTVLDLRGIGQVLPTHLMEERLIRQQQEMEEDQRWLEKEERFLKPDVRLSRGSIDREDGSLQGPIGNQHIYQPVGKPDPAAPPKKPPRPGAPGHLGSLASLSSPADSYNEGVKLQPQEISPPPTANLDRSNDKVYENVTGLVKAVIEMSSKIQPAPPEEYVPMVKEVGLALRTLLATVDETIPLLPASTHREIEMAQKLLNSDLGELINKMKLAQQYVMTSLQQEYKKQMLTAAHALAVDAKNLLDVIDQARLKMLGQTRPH
# ASSAY SUMMARY: FAK-HiBiT Degradation Assay
# Assay type: cell-based
# PARTICULARS: lower limit of the four parameter fit (value A); Ymax derived using DMSO control; JHH-4-FAK-HiBiT cells, two hours
ATTRIBUTE MEASURED: FAK HiBiT Ymin

COMPOUND	QUANTITATIVE READOUT
Cc1cc(F)cnc1-c1cc(N2CC(F)C2)nc2c1cnn2Cc1ccc2c(c1)CN([C@H]1CCC(=O)NC1=O)C2=O	11.17
O=C1CCC(N2Cc3cc(Cn4ncc5c(-c6ncccc6Br)cc(N6CC(F)C6)nc54)ccc3C2=O)C(=O)N1 (stereo not shown)	16.43
O=C1CC[C@H](N2Cc3cc(Cn4ncc5c(-c6ncc(OC(F)F)cc6Cl)cc(N6CC(F)C6)nc54)ccc3C2=O)C(=O)N1	7.78
Cc1nn(Cc2ccc3c(c2)CN(C2CCC(=O)NC2=O)C3=O)c2nc(N3CCC3)cc(-c3ccc(C#N)cc3Cl)c12 (stereo not shown)	9.10
